Source of measurements: the supplement of paper PMC10567573

B1: TOR1AIP2 (parent)
chain: HHVADAYTSSQKVSPIQIDGAGRT

Variants of: B1
Assay: protein stability index of a GFP-peptide fusion (GPS, HEK-293T) (PSI 1-6); higher = more stable;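 note: lentivirally expressed fusions sorted by FACS into six bins by GFP to DsRed ratio, PSI derived from sequencing read proportions per bin multiplied by bin number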
Settings: c terminus: a fixed tail appended
ENDPOINT LABEL: protein stability index
Please reply with the number alone, leaving off any unit.

Consider the reported protein stability index for these variants:
Input: Can you share its protein stability index? I mean this variant: HHVADAYTSSQKVSPIQIRGAGRT [D19R]
Output: 2.93

Input: Any idea what protein stability index was measured for HHVADAYTSSQKVEPIQIDGAGRT [S14E] ?
Output: 4.13

Input: May I ask what protein stability index has been recorded for HHVADAYTSSQKVSPIQIDGAVRT [G22V] ?
Output: 3.4

Input: Give the measured protein stability index of HHVADAYTSSQKVSPIQIDDAGRT [G20D] .
Output: 4.01

Further cases:
Input: Reported protein stability index, variant HHVADAYTSSHKVSPIQIDGAGRT [Q11H] : ____
Output: 3

Input: Endpoint output: protein stability index of HHVADAYTSSQKVSPIHIDGAGRT [Q17H] . Value?
Output: 3.17

Input: Give its protein stability index value. Item: HHVTDAYTSSQKVSPIQIDGAGRT [A4T]
Output: 2.27

Input: // returns reported protein stability index for input HHVKDAYTSSQKVSPIQIDGAGRT [A4K]
Output: 3.86

Input: Give the measured protein stability index of MHVADAYTSSQKVSPIQIDGAGRT [H1M] .
Output: 3.93

Input: If you can, please state the reported protein stability index value of HHVADAYTSSQKVSPIQIDGAGIT [R23I] .
Output: 3.45

Input: State the recorded protein stability index for this entry: HHVAYAYTSSQKVSPIQIDGAGRT [D5Y]
Output: 2.35
